# Test system: P388 leukemia ip, CD2F1 mice, survival T/C
# assay_comment: NCI In Vivo Anticancer Drug Screen. Data for tumor model P388 Leukemia (intraperitoneal) in CD2F1 (CDF1) mice
# condition_info: endpoint: median survival time; dose: 50.0 mg/kg/injection; schedule: Q01DX001 (ip); vehicle: saline; higher = longer survival
# Protocol: The antitumor activity of compounds was measured in mice bearing transplantable tumors. Survival or tumor size were measured and the results are expressed as the measurement made in the treated group (T) divided by the measurement made in the vehicle treated control group (C). The tumor model used in this assay is P388 Leukemia (intraperitoneal) in CD2F1 (CDF1) mice
Toxic doses and inconclusive results are not listed.
value_kind: T/C

Below: 5 compounds and their reported T/C.
C[n+]1ccc2ccccc2c1-c1c2ccccc2cc[n+]1C :: 99 % of control
CCCC(=O)N(CCC(N)=O)c1ncc([N+](=O)[O-])s1 :: 100 % of control
NC1CC1N (configuration not stated) :: 101 % of control
COc1c2occc2c(CSC(=N)N)c2ccc(=O)oc12 :: 100 % of control
COC(=O)c1ccc(NCC(=N)N)cc1 :: 100 % of control

Exercise: May I ask what T/C has been recorded for CC(CN1c2ccccc2Sc2ccccc21)N(C)C (configuration not stated) ?
Solution: 101 % of control

Exercise: May I ask what T/C has been recorded for O=c1c2ccccc2nc(CCN(CCCl)CCCl)n1-c1ccc(Cl)cc1 ?
Solution: 113 % of control

====

# System: P388 leukemia ip, CD2F1 mice, survival T/C
# assay_comment: NCI In Vivo Anticancer Drug Screen. Data for tumor model P388 Leukemia (intraperitoneal) in CD2F1 (CDF1) mice
# condition_info: endpoint: median survival time; dose: 50.0 mg/kg/injection; schedule: Q01DX009 (ip); vehicle: suspension in saline; higher = longer survival
Toxic doses and inconclusive results are not listed.
The following compounds are shown together with reported T/C values.

Below: 2 compounds and their reported T/C.
O=[N+]([O-])c1cc(NC(=S)SCc2ccc(Cl)cc2)ccc1Cl :: 109 % of control
COc1ccc(CSC(=S)Nc2cc(C)c(C)cc2[N+](=O)[O-])cc1 :: 93 % of control

Exercise: May I ask what T/C has been recorded for NC(=S)N/N=C/c1cc([N+](=O)[O-])ccc1Cl ?
Solution: 94 % of control

Exercise: May I ask what T/C has been recorded for Nc1nc(SCc2ccccc2)c2ncn(CCCl)c2n1 ?
Solution: 94 % of control

Exercise: May I ask what T/C has been recorded for Cc1cc2cc(N)ccc2[se]1 ?
Solution: 98 % of control

Exercise: May I ask what T/C has been recorded for C(=N\Nc1nn[nH]n1)/c1ccccc1 ?
Solution: 98 % of control

====

# Test system: P388 leukemia ip, CD2F1 mice, survival T/C
# assay_comment: NCI In Vivo Anticancer Drug Screen. Data for tumor model P388 Leukemia (intraperitoneal) in CD2F1 (CDF1) mice
# condition_info: endpoint: median survival time; dose: 240.0 mg/kg/injection; schedule: Q01DX005 (ip); vehicle: saline with Tween-80; higher = longer survival
Inconclusive results and toxic doses are left out.
value_kind: T/C

COc1cc2c(cc1OC)C(Cc1ccccc1NC(=O)c1ccc(C(=O)Nc3ccccc3CC3c4cc(OC)c(OC)cc4CCN3C)cc1)N(C)CC2 (stereo not given) :: 94 % of control
Cc1csc2n/c(=N/[N+](=O)[O-])sn12 :: 120 % of control
COC(SC)(C(=O)O)c1cc(-c2c(Cl)cccc2Cl)no1 (stereo not given) :: 112 % of control
O=C(NC1CCCCC1)OCc1c(COC(=O)NC2CCCCC2)c2cccn2c2c1cnn2-c1ccccc1 :: 99 % of control

# input for lookup
Exercise: May I ask what T/C has been recorded for O=P(OCCCl)(OCCCl)C(Nc1cccc2ccccc12)c1ccc(N(CCCl)CCCl)cc1 (stereo not given) ?
Solution: 99 % of control
